Sourced from PubChem BioAssay (NCATS)

Test: qHTS Assay for Lipid Storage Modulators (AID 1519)
Details: Drosophila S3 cells, BODIPY lipid droplet/cell ratio, laser cytometry; measured here: lipid channel max response; cells loaded with oleic acid
Results filed as inconclusive are left out.
The following molecules are listed with their measured max response values.
metric: max response

Cc1ncc([N+](=O)[O-])n1CCO :: 27.3%
COc1ccc2cc3[n+](cc2c1OC)CCc1cc2c(cc1-3)OCO2 :: -12.8%
Nc1[nH]c(=O)ncc1F :: 3.39%
CCCCCCNC(=O)n1cc(F)c(=O)[nH]c1=O :: 19.7%
CNNCc1ccc(C(=O)NC(C)C)cc1 :: 0.0882%
CN(C)CCc1c[nH]c2ccc(CS(=O)(=O)N3CCCC3)cc12 :: 27.5%
Cc1cccc(N(C)C(=S)Oc2ccc3ccccc3c2)c1 :: -5.23%
COc1c(N2CCNC(C)C2)c(F)cc2c(=O)c(C(=O)O)cn(C3CC3)c12 (stereo not drawn) :: 29.5%

----------
Listing of recorded z-score by entry.
Assay: qHTS for identification of novel therapeutic agents for treatment of microphthalmiaassociated transcription factor (MiT) renal cell carcinoma (RCC) (AID 1963991);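 also: curves scaled with 100% = DMSO viability and 0% = empty wells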
Conditions: TFE3-RCC UOK109 viability, CellTiter-Glo, 48 h; measured here: UOK109 Z-AUC; stronger effect = lower value
Inconclusive results are not listed.
metric: z-score

CC1CC2C3CCC4=CC(=O)C=C[C@]4(C)[C@@]3(F)[C@@H](O)C[C@]2(C)[C@@]1(O)C(=O)CO (stereo partly specified) :: 0.936
Cc1oc(=O)oc1CN1CCN(c2cc3c(cc2F)c(=O)c(C(=O)O)c2n3C(C)S2)CC1 (stereo unspecified) :: 0.77
CCN(C)C(=O)Oc1cccc([C@H](C)N(C)C)c1 :: 0.893
COc1nc(N)nc2c1ncn2[C@@H]1O[C@H](CO)[C@@H](O)[C@@H]1O :: 0.831
CC(C)C1CCC(C(=O)N[C@H](Cc2ccccc2)C(=O)O)CC1 (stereo partly specified) :: 0.399
CCN(CC)CC#CCOC(=O)C(O)(c1ccccc1)C1CCCCC1 (stereo unspecified) :: 0.714
NC(=O)c1cccnc1 :: 0.739
CC(N)C12CC3CC(CC(C3)C1)C2 (stereo unspecified) :: 0.00344
CNS(=O)(=O)Cc1ccc2[nH]cc(CCN(C)C)c2c1 :: 0.748
O=C(O)CSCC(=O)NC1CCSC1=O (stereo unspecified) :: 0.815
Cc1c(-c2ccc(O)cc2)n(Cc2ccc(OCCN3CCCCCC3)cc2)c2ccc(O)cc12 :: 0.552

----------
Assay: Drug repurposing screens with cells derived from glioblastoma tumor samples (AID 1345199); also: % is scaled to controls: 0 for no effect and ±100 for the full control effect
Details: GBM patient neurospheres viability, ATP luminescence, 48 h; at 45.9 µM (top of the series); tumour line D
Records with an inconclusive call do not appear.
// returns No unless activity, negative = cell killing is strictly below -10%, in which case Yes

CN1CCN(c2c(F)cc3c(=O)c(C(=O)O)cn4c3c2OCN4C)CC1 :: Yes
CCC(=O)O[C@]1(C(=O)CCl)[C@@H](C)C[C@H]2[C@@H]3CCC4=CC(=O)C=C[C@]4(C)[C@@]3(F)[C@@H](O)C[C@@]21C :: No
CO[C@@]12[C@H](COC(N)=O)C3=C(C(=O)C(C)=C(N)C3=O)N1C[C@@H]1N[C@@H]12 :: Yes
O=P(O)(O)C(O)(Cc1cccnc1)P(=O)(O)O :: No
CC(C(=O)O)c1ccc2c(c1)CC(=O)c1ccccc1S2 (stereo not given) :: Yes
